Item-by-item account of HC50 at 1 h
# assay-comment: Cytotoxicity against human erythrocytes assessed as hemolytic activity after 60 mins
# Type: cell-based, Erythrocyte
# condition-notes: read-out: HD50

>  <mol>
C[C@@H]1CC[C@@]2(OC1)O[C@H]1C[C@H]3[C@@H]4CC=C5C[C@@H](O[C@@H]6O[C@H](CO)[C@@H](O[C@H]7O[C@H](C)[C@@H](OCCNC(=O)COc8ccc(Cl)cc8)[C@H](O)[C@@H]7O)[C@H](O)[C@H]6O[C@H]6O[C@H](C)[C@@H](O)[C@H](O)[C@@H]6O)CC[C@]5(C)[C@H]4CC[C@]3(C)[C@H]1[C@@H]2C

>  <HC50 at 1 h [µM]>
2.9

$$$$
>  <mol>
C[C@@H]1CC[C@@]2(OC1)O[C@H]1C[C@H]3[C@@H]4CC=C5C[C@@H](O[C@@H]6O[C@H](CO)[C@@H](O[C@H]7O[C@H](C)[C@@H](OCCN=[N+]=[N-])[C@H](O)[C@@H]7O)[C@H](O)[C@H]6O[C@H]6O[C@H](C)[C@@H](O)[C@H](O)[C@@H]6O)CC[C@]5(C)[C@H]4CC[C@]3(C)[C@H]1[C@@H]2C

>  <HC50 at 1 h [µM]>
9.7

$$$$
>  <mol>
C=CCCCCCCCCC(=O)NCCO[C@H]1[C@H](O)[C@H](O)[C@@H](O[C@H]2[C@H](O)[C@@H](O[C@H]3O[C@H](C)[C@@H](O)[C@H](O)[C@@H]3O)[C@H](O[C@H]3CC[C@@]4(C)C(=CC[C@H]5[C@@H]6C[C@@H]7O[C@]8(CC[C@@H](C)CO8)[C@@H](C)[C@@H]7[C@@]6(C)CC[C@@H]54)C3)O[C@@H]2CO)O[C@@H]1C

>  <HC50 at 1 h [µM]>
3.8

$$$$
>  <mol>
C[C@@H]1CC[C@@]2(OC1)O[C@H]1C[C@H]3[C@@H]4CC=C5C[C@@H](O[C@@H]6O[C@H](CO)[C@@H](O[C@H]7O[C@H](C)[C@@H](OCCNC(=O)COc8ccccc8)[C@H](O)[C@@H]7O)[C@H](O)[C@H]6O[C@H]6O[C@H](C)[C@@H](O)[C@H](O)[C@@H]6O)CC[C@]5(C)[C@H]4CC[C@]3(C)[C@H]1[C@@H]2C

>  <HC50 at 1 h [µM]>
7.6

$$$$
>  <mol>
C[C@@H]1CC[C@@]2(OC1)O[C@H]1C[C@H]3[C@@H]4CC=C5C[C@@H](O[C@@H]6O[C@H](CO)[C@@H](O[C@H]7O[C@H](C)[C@@H](OCCN)[C@H](O)[C@@H]7O)[C@H](O)[C@H]6O[C@H]6O[C@H](C)[C@@H](O)[C@H](O)[C@@H]6O)CC[C@]5(C)[C@H]4CC[C@]3(C)[C@H]1[C@@H]2C

>  <HC50 at 1 h [µM]>
2.6

$$$$

* * *

# assay-comment: Cytotoxicity against human erythrocytes assessed as hemolytic activity at 100 ug/ml after 60 mins
# Format: cell-based, Erythrocyte
# condition-notes: human erythrocytes, read-out: Activity

>  <mol>
CCCCCCCCCCCC(=O)O[C@H]1C[C@@H]2[C@H](CC[C@]3(C)[C@@H]4[C@H](C[C@@H]23)O[C@]2(CC[C@@H](C)CO2)[C@H]4C)[C@@]2(C)C[C@@H](O)[C@H](O[C@@H]3O[C@H](CO)[C@@H](O[C@H]4O[C@H](C)[C@@H](O)[C@H](O)[C@@H]4O)[C@H](O)[C@H]3O[C@H]3O[C@H](C)[C@@H](O)[C@H](O)[C@@H]3O)C[C@H]12

>  <hemolysis at 1 h, 100 ug/ml / %>
8.5

$$$$

* * *

# assay-comment: Cytotoxicity against human erythrocytes assessed as hemolytic activity after 60 mins
# Type: cell-based, Erythrocyte
# condition-notes: read-out: HD50
Item-by-item account of HC50 at 1 h

>  <mol>
CC(=O)O[C@@H]1[C@@H](O)[C@@H](O)[C@H](OC[C@H]2O[C@@H](O[C@H]3CC[C@@]4(C)C(=CC[C@H]5[C@@H]6C[C@@H]7O[C@]8(CC[C@@H](C)CO8)[C@@H](C)[C@@H]7[C@@]6(C)CC[C@@H]54)C3)[C@H](O)[C@@H](O)[C@@H]2O)O[C@H]1C

>  <qualifier-operator>
>

>  <HC50 at 1 h, µM>
50

$$$$
>  <mol>
CCCCCCCCCCCCCCCC(=O)O[C@H]1C[C@@H]2[C@H](CC[C@]3(C)[C@@H]4[C@H](C[C@@H]23)O[C@]2(CC[C@@H](C)CO2)[C@H]4C)[C@@]2(C)C[C@@H](O)[C@H](O[C@@H]3O[C@H](CO)[C@@H](O[C@H]4O[C@H](C)[C@@H](O)[C@H](O)[C@@H]4O)[C@H](O)[C@H]3O[C@H]3O[C@H](C)[C@@H](O)[C@H](O)[C@@H]3O)C[C@H]12

>  <qualifier-operator>
>

>  <HC50 at 1 h, µM>
100

$$$$
>  <mol>
C[C@@H]1CC[C@@]2(OC1)O[C@H]1C[C@H]3[C@@H]4CC[C@H]5C[C@@H](O[C@@H]6O[C@H](CO)[C@@H](O[C@H]7O[C@H](C)[C@@H](O)[C@H](O)[C@@H]7O)[C@H](O)[C@H]6O[C@H]6O[C@H](C)[C@@H](O)[C@H](O)[C@@H]6O)[C@H](O)C[C@]5(C)[C@H]4CC[C@]3(C)[C@H]1[C@@H]2C

>  <qualifier-operator>
=

>  <HC50 at 1 h, µM>
13.1

$$$$
>  <mol>
CC(=O)OC[C@H]1O[C@H](O[C@H]2[C@H](O)[C@@H](O[C@H]3O[C@H](C)[C@@H](O)[C@H](O)[C@@H]3O)[C@H](O[C@H]3CC[C@@]4(C)C(=CC[C@H]5[C@@H]6C[C@@H]7O[C@]8(CC[C@@H](C)CO8)[C@@H](C)[C@@H]7[C@@]6(C)CC[C@@H]54)C3)O[C@@H]2CO)[C@@H](O)[C@@H]1OC(C)=O

>  <qualifier-operator>
=

>  <HC50 at 1 h, µM>
2.7

$$$$
>  <mol>
CC(=O)OC[C@H]1O[C@@H](O[C@H]2CC[C@@]3(C)C(=CC[C@H]4[C@@H]5C[C@@H]6O[C@]7(CC[C@@H](C)CO7)[C@@H](C)[C@@H]6[C@@]5(C)CC[C@@H]43)C2)[C@H](O[C@@H]2O[C@@H](C)[C@H](OC(C)=O)[C@@H](O)[C@H]2O)[C@@H](O)[C@@H]1O

>  <qualifier-operator>
>

>  <HC50 at 1 h, µM>
75

$$$$
>  <mol>
C[C@@H]1CC[C@@]2(OC1)O[C@H]1C[C@H]3[C@@H]4CC=C5C[C@@H](O[C@@H]6O[C@H](CNS(=O)(=O)c7cccc8c(N(C)C)cccc78)[C@@H](O[C@H]7O[C@H](C)[C@@H](O)[C@H](O)[C@@H]7O)[C@H](O)[C@H]6O[C@H]6O[C@H](C)[C@@H](O)[C@H](O)[C@@H]6O)CC[C@]5(C)[C@H]4CC[C@]3(C)[C@H]1[C@@H]2C

>  <qualifier-operator>
=

>  <HC50 at 1 h, µM>
6.9

$$$$

* * *

# assay-comment: Cytotoxicity against human erythrocytes assessed as hemolytic activity after 60 mins
# Assay type: cell-based, Erythrocyte
# condition-notes: read-out: HD50
measured-quantity: HC50 at 1 h

>  <compound>
C[C@@H]1CC[C@@]2(OC1)O[C@H]1C[C@H]3[C@@H]4CC=C5C[C@@H](O[C@@H]6O[C@H](CO)[C@@H](O[C@H]7O[C@H](C)[C@@H](OCCNC(=O)/C=C/c8ccccc8)[C@H](O)[C@@H]7O)[C@H](O)[C@H]6O[C@H]6O[C@H](C)[C@@H](O)[C@H](O)[C@@H]6O)CC[C@]5(C)[C@H]4CC[C@]3(C)[C@H]1[C@@H]2C

>  <result>
1.5 µM

$$$$
>  <compound>
C[C@@H]1CC[C@@]2(OC1)O[C@H]1C[C@H]3[C@@H]4CC=C5C[C@@H](O[C@@H]6O[C@H](CO)[C@@H](O[C@H]7O[C@H](C)[C@@H](OCCNC(=O)c8ccccc8)[C@H](O)[C@@H]7O)[C@H](O)[C@H]6O[C@H]6O[C@H](C)[C@@H](O)[C@H](O)[C@@H]6O)CC[C@]5(C)[C@H]4CC[C@]3(C)[C@H]1[C@@H]2C

>  <result>
49.3 µM

$$$$
>  <compound>
C[C@@H]1CC[C@@]2(OC1)O[C@H]1C[C@H]3[C@@H]4CC[C@H]5C[C@@H](O[C@@H]6O[C@H](CO)[C@H](O)[C@H](O)[C@H]6O[C@H]6O[C@H](C)[C@@H](O)[C@H](O)[C@@H]6O)[C@H](O)C[C@]5(C)[C@H]4CC[C@]3(C)[C@H]1[C@@H]2C

>  <result>
7.5 µM

$$$$
>  <compound>
C[C@@H]1CC[C@@]2(OC1)O[C@H]1C[C@H]3[C@@H]4CC=C5C[C@@H](O[C@@H]6O[C@H](CO)[C@@H](O)[C@H](O[C@@H]7O[C@@H](C)[C@H](O)[C@@H](O)[C@H]7O)[C@H]6O)CC[C@]5(C)[C@H]4CC[C@]3(C)[C@H]1[C@@H]2C [POLYPHILLIN C]

>  <result>
> 40 µM

$$$$
>  <compound>
C[C@@H]1CC[C@@]2(OC1)O[C@H]1C[C@H]3[C@@H]4CC=C5C[C@@H](O[C@@H]6O[C@H](CNC(=O)c7ccccc7)[C@@H](O[C@H]7O[C@H](C)[C@@H](O)[C@H](O)[C@@H]7O)[C@H](O)[C@H]6O[C@H]6O[C@H](C)[C@@H](O)[C@H](O)[C@@H]6O)CC[C@]5(C)[C@H]4CC[C@]3(C)[C@H]1[C@@H]2C

>  <result>
10.7 µM

$$$$
>  <compound>
C[C@@H]1CC[C@@]2(OC1)O[C@H]1C[C@H]3[C@@H]4CC=C5C[C@@H](O[C@@H]6O[C@H](CN)[C@@H](O[C@H]7O[C@H](C)[C@@H](O)[C@H](O)[C@@H]7O)[C@H](O)[C@H]6O[C@H]6O[C@H](C)[C@@H](O)[C@H](O)[C@@H]6O)CC[C@]5(C)[C@H]4CC[C@]3(C)[C@H]1[C@@H]2C

>  <result>
24.8 µM

$$$$
